target or system: human recombinant ETB receptor (Homo sapiens, UniProt P24530)
Sequence (P24530 27-442): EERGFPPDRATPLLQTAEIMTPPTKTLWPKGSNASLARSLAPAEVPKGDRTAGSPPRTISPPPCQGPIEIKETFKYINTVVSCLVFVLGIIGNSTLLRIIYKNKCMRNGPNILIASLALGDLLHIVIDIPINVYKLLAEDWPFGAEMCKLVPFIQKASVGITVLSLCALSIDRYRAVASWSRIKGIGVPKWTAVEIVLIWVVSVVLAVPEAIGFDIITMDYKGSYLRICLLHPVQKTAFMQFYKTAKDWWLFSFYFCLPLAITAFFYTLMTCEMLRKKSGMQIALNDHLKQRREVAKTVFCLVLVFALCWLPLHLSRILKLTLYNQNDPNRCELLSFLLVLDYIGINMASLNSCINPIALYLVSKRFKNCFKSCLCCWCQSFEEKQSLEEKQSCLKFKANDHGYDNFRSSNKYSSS
procedure details: Inhibition of [125I]ET-1 binding to membranes from CHO cells carrying human ETB receptors
pIC50: −log10 of the molar value.
measure name: pIC50

Below, each entry is followed by its recorded pIC50 result.
INSERT INTO results (smiles_record, measure_name, observed) VALUES
  ('COc1ccccc1Oc1c(NS(=O)(=O)NCc2ccccc2)ncnc1OCCOC(=O)Nc1ccccn1', 'pIC50', 6.80),
  ('COc1cnc(OCCOc2ncnc(NS(=O)(=O)NCc3ccccc3)c2-c2ccc(Br)cc2)nc1', 'pIC50', 6.47),
  ('COc1ccccc1Oc1c(NS(=O)(=O)NCc2ccccc2)nc(C2CC2)nc1OCCOc1ncc(SC)cn1', 'pIC50', 6.36),
  ('COc1ccc(CNS(=O)(=O)Nc2nc(-c3ncccn3)nc(OCCOc3ncccn3)c2Oc2ccccc2OC)cc1OC', 'pIC50', 8.19),
  ('CSc1cnc(OCCOc2ncnc(NS(=O)(=O)NCC3CC3)c2-c2ccc(Br)cc2)nc1', 'pIC50', 7.25);

A: Cc1ccc(-c2c(NS(=O)(=O)NCc3ccccc3)nc(-c3ccncc3)nc2OCCOc2ncc(Br)cn2)cc1
B: O=S(=O)(NCc1cccs1)Nc1ncnc(OCCOc2ccc(C(F)(F)F)cn2)c1-c1ccc(Cl)cc1
Prompt line: Please state the entry with greater pIC50 among A and B . State the label of the item chosen.
Response line: B

a: COc1ccccc1Oc1c(NS(=O)(=O)NCc2ccccc2)ncnc1OCCOc1ncc(SC)cn1
b: COc1ccccc1Oc1c(NS(=O)(=O)NCc2ccccc2)nc(S(C)(=O)=O)nc1OCCO
c: CCNS(=O)(=O)Nc1ncnc(OCCOc2ncc(SC)cn2)c1-c1ccc(Br)cc1
d: COc1ccc(CNS(=O)(=O)Nc2nc(-c3ncccn3)nc(OCCOC(=O)Nc3ccccn3)c2Oc2ccccc2OC)cc1
Prompt line: Put the items in sequence by pIC50, from largest down. List the labels in the requested order.
Response line: d, a, c, b

a: COc1ccc(Cl)c(Oc2c(NS(=O)(=O)NCc3ccccc3)ncnc2OCCOc2ncc(S(C)(=O)=O)cn2)c1
b: COc1cnc(OCCOc2nc(-c3ccncc3)nc(NS(=O)(=O)NCC3CC3)c2Oc2ccccc2OC)nc1
Prompt line: Which record would sort first by descending pIC50, a or b ? Please identify the chosen entry by its label.
Response line: b
(b: 6.99, a: 6.62)

a: COc1ccccc1Oc1c(NS(=O)(=O)NC2CC2)nc(-c2ncccn2)nc1OCCOc1ncc(Br)cn1
b: C#CCOc1nc(-c2ccncc2)nc(NS(=O)(=O)NCc2ccc(OC)cc2)c1Oc1ccccc1OC
c: COc1ccc(CNS(=O)(=O)Nc2nc(-c3ncccn3)nc(OCCOc3ncc(Br)cn3)c2Oc2ccccc2OC)cc1
d: COc1cnc(OCCOc2ncnc(NS(=O)(=O)NCc3ccc4c(c3)OCO4)c2-c2ccc(C)cc2)nc1
e: COc1ccccc1Oc1c(NS(=O)(=O)NCC2CC2)nc(-c2ccncc2)nc1OCCOc1ncc(Br)cn1
Prompt line: Arrange by pIC50, high to low. // list labels; follow requested order
Response line: c, e, a, d, b

A: COc1ccccc1Oc1c(NS(=O)(=O)NCc2ccccn2)nc(-c2ncccn2)nc1OCCOc1ncc(SC)cn1
B: COc1cnc(OCCOc2ncnc(NS(=O)(=O)NCC3CC3)c2-c2ccc(Cl)cc2)nc1
Prompt line: Sort A and B by pIC50 descending and give the first. State your choice using its label.
Response line: A
(A: 6.76, B: 6.24)

A: COc1ccccc1Oc1c(NS(=O)(=O)NCc2ccc(Cl)cc2)nc(-c2ncccn2)nc1OCCOc1ncc(Br)cn1
B: COc1ccccc1Oc1c(NS(=O)(=O)NCc2ccccc2)nc(C2CC2)nc1OCCOC(=O)Nc1ccccn1
Prompt line: Among A and B , whose measured pIC50 is the smaller figure? Returns: label corresponding to the selected item.
Response line: A
(A: 6.79, B: 7.10)

I: COc1ccccc1Oc1c(NS(=O)(=O)Nc2ccc(C(C)(C)C)cc2)nc(-c2ccncc2)nc1OCCO
II: Cc1cnc(OCCOc2ncnc(NS(=O)(=O)NCc3ccccc3)c2-c2ccc(Cl)cc2)nc1
Prompt line: pIC50 comparison. Which is larger, I or II ? Please identify the chosen entry by its label.
Response line: I

a: COc1cnc(OCCOc2nc(-c3ncccn3)nc(NS(=O)(=O)N(C)Cc3ccccc3)c2Oc2ccccc2OC)nc1
b: COc1ccc(CNS(=O)(=O)Nc2ncnc(OCCOc3ncc(Br)cn3)c2Oc2cc(OC)ccc2Cl)cc1
Prompt line: Smaller pIC50 value, a vs b ? Which one? Tell me its label.
Response line: a
(a: 6.54, b: 7.10)

Values compiled from patent US7094781B2.
